# Tested on: soybean
# Assay: Test A preemergence
# Format: in vivo, Glycine max
# Condition: 125 g ai/ha, 0 to 100 scale

Compound Structure String: CC(C)c1ncn(-c2ccc(OC(F)F)c(C(=O)N3C[C@H](C)Oc4c(Cl)cccc43)c2)n1
Plant response rating, Soybean: 100

Compound Structure String: Cc1nc(C)n(-c2cccc(C(=O)N3C[C@H](C)Oc4c(Cl)cccc43)c2)n1
Plant response rating, Soybean: 0

Compound Structure String: Cc1ccc(-n2cnc(C(C)(C)O)n2)cc1C(=O)N1C[C@H](C)Oc2c(Cl)cccc21
Plant response rating, Soybean: 100

Compound Structure String: Cc1ccc(-n2cnc(CO)n2)cc1C(=O)N1C[C@H](C)Oc2c(Cl)cccc21
Plant response rating, Soybean: 70

Compound Structure String: C[C@H]1CN(C(=O)c2cc(I)cc(-n3cncn3)c2)c2cccc(Cl)c2O1
Plant response rating, Soybean: 0

###

# System: ducksalad
# Assay: Test D flooded paddy test
# Assay type: in vivo, Heteranthera limosa
# Condition: 250 g ai/ha, applied to paddy water, visual rating after 13 to 14 days, scale 0 to 100 (0 no effect, 100 complete control)
Recorded measurements of Plant response rating, Ducksalad (Flood), one per entry

Compound: CC(C)c1ncn(-c2cc(C(=O)N3CC(C(F)(F)F)Oc4c(Cl)cccc43)ccn2)n1 (single isomer, unassigned) [Compound 330]
Plant response rating, Ducksalad (Flood): 0
//
Compound: Cc1ncc(-c2cccc(C(=O)N3C[C@H](C)Oc4c(Cl)cccc43)c2)s1
Plant response rating, Ducksalad (Flood): 0
//
Compound: C[C@H]1CN(C(=O)c2cc(-n3cnc(C4CC4)n3)cc3c2OCCO3)c2cccc(Cl)c2O1
Plant response rating, Ducksalad (Flood): 65
//
Compound: CCc1c(F)cc(-n2cnc(C(C)C)n2)cc1C(=O)N1C[C@H](C)Oc2c(Cl)cccc21
Plant response rating, Ducksalad (Flood): 0
//
Compound: CCOC[C@H]1CN(C(=O)c2cc(-n3cnc(C(C)(C)C)n3)cc3c2OCO3)c2cccc(Cl)c2O1
Plant response rating, Ducksalad (Flood): 0
//
Compound: COc1ncn(-c2cccc(C(=O)N3C[C@H](C)Oc4c(Cl)cccc43)c2)n1
Plant response rating, Ducksalad (Flood): 75
//
Compound: Cc1ccc(-n2cnc(C3(C#N)CCC3)n2)cc1C(=O)N1C[C@H](C)Oc2c(Cl)cccc21
Plant response rating, Ducksalad (Flood): 45

###

# System: green foxtail
# Assay: Test C postemergence
# Format: in vivo, Setaria viridis
# Condition: 500 g ai/ha, postemergence, 10 days, 0 to 100 scale (0 no effect, 100 complete control)
Quick reference: Plant response rating, Foxtail, Green of the listed items.

Molecule: COc1ncn(-c2cccc(C(=O)N3C[C@H](C)Oc4c(Cl)cccc43)c2)n1 [Compound 310]
Assay Target: green foxtail
Plant response rating, Foxtail, Green: 50

Molecule: Cc1ccc(-n2cnc(CS(C)(=N)=O)n2)cc1C(=O)N1C[C@H](C)Oc2c(Cl)cccc21 (stereo partly drawn) [Compound 403]
Assay Target: green foxtail
Plant response rating, Foxtail, Green: 90

Molecule: CC(=O)c1ncn(-c2ccc(C)c(C(=O)N3C[C@H](C)Oc4c(Cl)cccc43)c2)n1 [Compound 360]
Assay Target: green foxtail
Plant response rating, Foxtail, Green: 90

Molecule: CCOC[C@H]1CN(C(=O)c2cc(-n3cnc(C(C)(C)C)n3)ccc2C)c2cccc(Cl)c2O1 [Compound 413]
Assay Target: green foxtail
Plant response rating, Foxtail, Green: 60

Molecule: CC(C)c1ncn(-c2cccc(C(=O)N3CC(C(F)(F)F)Oc4c(Cl)cccc43)c2)n1 (single isomer, unassigned) [Compound 288]
Assay Target: green foxtail
Plant response rating, Foxtail, Green: 20

Molecule: Cc1nnc(-c2cccc(C(=O)N3C[C@H](C)Oc4c(Cl)cccc43)c2)o1 [Compound 355]
Assay Target: green foxtail
Plant response rating, Foxtail, Green: 10
